B1: CD2-associated protein, residues 109 to 169; numbered along this chain, Q9Y5K6 (parent)
chain: KKRQCKVLFEYIPQNEDELELKVGDIIDINEEVEEGWWSGTLNNKLGLFPSNFVKELEVTD

# Variants of: B1
# MEASUREMENT_NOTES: abundance fitness (aPCA) (normalised: wild type 0, dead -1); higher = more abundant; growth selection in yeast, the domain comes from the species named
# TEST_PARAMETERS: Homo sapiens
Kindly supply the reported abundance fitness values for the records listed here.
One number for each entry.

Reference set, count: 5
Form field: reported abundance fitness of KKRQCKVLFEYIPQNEDELELKVGDIIDINEEVEEGWWSGTLNNKLGLFPSNFVKELERTD -0.131

Form field: reported abundance fitness of KKRQCKVLFEYIPQNEDELELKVGDIADINEEVEEGWWSGTLNNKLGLFPSNFVKELEVTD -0.608

Form field: reported abundance fitness of KKRQCKVLFEYIPQNEDELELKVGDIIDINEEVEEGWWSGTLNNKLSLFPSNFVKELEVTD -1.05

Form field: reported abundance fitness of KKRQCKVLFEYIPQNEDELELKVGDIIDINEEVEEGWWSGTLNNKLGLFPSNYVKELEVTD 0.019

Form field: reported abundance fitness of KKRQCKVLFEYIPQNEDELELKVGDIIDINEEVEEGWWSGTLENKLGLFPSNFVKELEVTD -0.333

Count: 4. Required value per item: abundance fitness.
1. KKRQCKVLFEYIPQNEDELELKVGDIIDINEEVEEGWWSGTLNNKLGLFPSEFVKELEVTD
2. KKRQCKVLFEYIPQNEDELELKVGDIIDINEEVEEGSWSGTLNNKLGLFPSNFVKELEVTD
3. KKRQCKVLFEYIPQNEDELELKVGDIIDINEEVEEGWWTGTLNNKLGLFPSNFVKELEVTD
4. KKRQCKVLFEYIPQNEDELELKVGDIIDINEEVEEGWWSGTLNNKLGLFPSNFVKELKVTD

0.053
-0.77
-0.06
0.027

Count: 6. Required value per item: abundance fitness.
1. KKRQCKVLFEYIPQNEDELELKVGDIIDINEEVEEGWWSGTLNNKLGLFPSNFVKQLEVTD
2. KKRQCKVLFEYIPQNEDELELKVGDIIDINEEVEEGWWSGTLNNKLGLTPSNFVKELEVTD
3. KKRQCKVLFEYIPQNEDELELKVGDIIDINEEVEEGWWSGTLGNKLGLFPSNFVKELEVTD
4. KKRQCKVLFEYIPQNEDELELKVGDIIDINEEVEEGWWSVTLNNKLGLFPSNFVKELEVTD
5. KKRQCKVLFEYIPQNEDELELKVGDIIDINEEVEEGWWSGTLNNKLGLFPSNFVKELEVRD
6. KKRQCKVLFEYIPQNEDELELKVGDIIDINEEVEEGWWSGTLNNKMGLFPSNFVKELEVTD

-0.291
-0.921
-0.09
-0.306
-0.366
0.006

Count: 6. Required value per item: abundance fitness.
1. KKRQCKVLFEYIPQNEDELELKVGDIIDINEEVEEGDWSGTLNNKLGLFPSNFVKELEVTD
2. KKRQCKVLFEYIPQNEDELELKVGDIIDINEEVEEGWWSGTPNNKLGLFPSNFVKELEVTD
3. KKRQCKVLFEYIPQNEDELELKVGDIIDINEEVEEGWWSGTLNNKLGLFPDNFVKELEVTD
4. KKRQCKVLFEYIPQNEDELELKVGDIIDINEEVEEGWWSGTLNNKLGLFPSNFVKELEVYD
5. KKRQCKVLFEYIPQNEDELELKVGDIIDINEEVEEGWWSGTLNNKLGTFPSNFVKELEVTD
6. KKRQCKVLFEYIPQNEDELELKVGDIIDINEEVEEGWWSGTLNNKLGCFPSNFVKELEVTD

[-0.387, -0.732, -0.324, -0.489, -0.021, -0.094]

Form field: reported abundance fitness of KKRQCKVLFEYIPQNEDELELKVGDIICINEEVEEGWWSGTLNNKLGLFPSNFVKELEVTD -0.264
